Numbers sourced from patent US5807535A.

Assay: Biodistribution of compound No. 6 in mice (Table 6)
Format: in vivo, Balb/c mice
Conditions: mouse, muscle, 3 min, read-out: biodistribution muscle
recorded_endpoint: tissue uptake at 0.05 h (%ID/g)

given_smiles=Cc1cc(C)c(O)c(NC(=O)CN(CCN(CC(=O)O)CC(=O)Nc2cc(C)cc(C)c2O)CC(=O)O)c1 recorded_endpoint="tissue uptake at 0.05 h" reading_unit=%ID/g result_number=1.81

* * *

This section presents compounds with their documented biodistribution kidney values.
Test: Biodistribution of 67Ga complexes in mice
Assay type: in vivo, balb/c mice
Conditions: 5 min
recorded_endpoint: biodistribution kidney

given_smiles=O=C(O)CN(CCN(CC(=O)O)CC(=O)Nc1ccc(Cl)cc1O)CC(=O)Nc1ccc(Cl)cc1O recorded_endpoint="biodistribution kidney" result="3.52 % ID"
given_smiles=O=C(O)CN(CCN(CC(=O)O)CC(=O)Nc1ccccc1O)CC(=O)Nc1ccccc1O recorded_endpoint="biodistribution kidney" result="4.37 % ID"
given_smiles=Cc1cc(C)c(O)c(NC(=O)CN(CCN(CC(=O)O)CC(=O)Nc2cc(C)cc(C)c2O)CC(=O)O)c1 recorded_endpoint="biodistribution kidney" result="3.36 % ID"
given_smiles=CC(C)(C)c1ccc(O)c(NC(=O)CN(CCN(CC(=O)O)CC(=O)Nc2cc(C(C)(C)C)ccc2O)CC(=O)O)c1 recorded_endpoint="biodistribution kidney" result="1.59 % ID"
